Values from patent US20240360228A1

- Study target: T1, human chemokine (C-C motif) receptor 8 (CCR8) (human, UniProt P51685 1-355)
- T1 construct: On human peripheral blood lymphocytes / PBMC (native) or on human CCR8 GFP-transfected Ba/F3 cells; also called hCCR8; human CCR8
- T1 sequence (P51685 whole entry): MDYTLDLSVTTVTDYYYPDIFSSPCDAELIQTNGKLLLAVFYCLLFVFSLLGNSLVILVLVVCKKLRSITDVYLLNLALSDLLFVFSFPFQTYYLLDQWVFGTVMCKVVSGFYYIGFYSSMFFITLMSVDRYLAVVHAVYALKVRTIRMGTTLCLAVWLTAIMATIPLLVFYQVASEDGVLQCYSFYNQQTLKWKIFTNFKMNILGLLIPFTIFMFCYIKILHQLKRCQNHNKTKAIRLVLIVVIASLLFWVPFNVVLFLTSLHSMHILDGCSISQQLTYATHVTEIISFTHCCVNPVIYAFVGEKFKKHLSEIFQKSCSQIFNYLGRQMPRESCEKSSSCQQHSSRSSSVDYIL
- Assay comment: flow cytometry blocking, PBMC CCR8+ CD4+ cells; competitor PE-AB4 (its MFI is read)

{"Binder": "AB5 (antibody, V domains shown, Hybridoma monoclonal; also called antibody 5; clone 5) VH: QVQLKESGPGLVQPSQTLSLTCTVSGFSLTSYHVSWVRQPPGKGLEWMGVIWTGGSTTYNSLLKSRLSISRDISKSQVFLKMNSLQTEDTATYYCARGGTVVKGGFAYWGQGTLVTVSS VL: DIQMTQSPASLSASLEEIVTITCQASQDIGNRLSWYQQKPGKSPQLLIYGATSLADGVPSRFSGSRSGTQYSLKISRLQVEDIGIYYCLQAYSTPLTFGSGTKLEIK", "Unit annotation": "%", "% Blocking": -6.8}
{"Binder": "AB2 (antibody, V domains shown, Hybridoma monoclonal; also called antibody 2; clone 2) VH: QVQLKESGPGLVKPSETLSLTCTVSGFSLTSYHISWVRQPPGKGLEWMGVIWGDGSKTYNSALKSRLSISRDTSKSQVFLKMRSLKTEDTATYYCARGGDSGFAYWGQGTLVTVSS VL: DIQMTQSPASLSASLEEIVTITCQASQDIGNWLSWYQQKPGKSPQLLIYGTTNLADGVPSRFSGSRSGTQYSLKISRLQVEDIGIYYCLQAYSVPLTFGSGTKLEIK", "Unit annotation": "%", "% Blocking": 16.2}
{"Binder": "AB12 (antibody, V domains shown, Hybridoma monoclonal; also called antibody 12; clone 12) VH: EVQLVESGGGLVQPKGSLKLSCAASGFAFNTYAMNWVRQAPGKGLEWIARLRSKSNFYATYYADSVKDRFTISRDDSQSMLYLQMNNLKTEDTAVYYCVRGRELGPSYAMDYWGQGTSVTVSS VL: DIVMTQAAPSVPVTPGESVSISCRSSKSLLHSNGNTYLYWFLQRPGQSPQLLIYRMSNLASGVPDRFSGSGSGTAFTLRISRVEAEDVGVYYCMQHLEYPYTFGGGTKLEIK", "Unit annotation": "%", "% Blocking": -54.7}
{"Binder": "AB14 (antibody, V domains shown, Hybridoma monoclonal; also called antibody 14; clone 14) VH: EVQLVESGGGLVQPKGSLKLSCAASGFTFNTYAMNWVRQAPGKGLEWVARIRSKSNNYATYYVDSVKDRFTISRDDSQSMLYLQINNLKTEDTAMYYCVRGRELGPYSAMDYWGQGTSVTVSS VL: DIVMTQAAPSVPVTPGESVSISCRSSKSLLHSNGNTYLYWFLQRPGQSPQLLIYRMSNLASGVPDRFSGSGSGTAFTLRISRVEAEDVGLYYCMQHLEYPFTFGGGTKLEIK", "Unit annotation": "%", "% Blocking": -39.4}
{"Binder": "AB1 (antibody, V domains shown, Hybridoma monoclonal (mice or rats immunised); Used purified and PE-conjugated; also called antibody 1; clone 1) VH: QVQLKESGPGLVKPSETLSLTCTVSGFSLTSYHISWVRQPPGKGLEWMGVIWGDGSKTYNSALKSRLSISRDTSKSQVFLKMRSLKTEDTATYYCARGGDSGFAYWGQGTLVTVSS VL: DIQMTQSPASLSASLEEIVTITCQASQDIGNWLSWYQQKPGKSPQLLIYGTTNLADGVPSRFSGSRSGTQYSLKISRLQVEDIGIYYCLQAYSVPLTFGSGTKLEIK", "Unit annotation": "%", "% Blocking": 100}
{"Binder": "AB13 (antibody, V domains shown, Hybridoma monoclonal; also called antibody 13; clone 13) VH: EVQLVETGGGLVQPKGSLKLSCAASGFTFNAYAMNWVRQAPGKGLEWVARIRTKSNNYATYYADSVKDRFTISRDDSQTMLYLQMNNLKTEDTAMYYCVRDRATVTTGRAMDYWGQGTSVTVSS VL: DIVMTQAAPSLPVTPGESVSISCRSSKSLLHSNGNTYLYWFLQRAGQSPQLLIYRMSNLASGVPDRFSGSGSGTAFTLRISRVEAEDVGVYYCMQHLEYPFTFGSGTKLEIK", "Unit annotation": "%", "% Blocking": -42.8}
{"Binder": "AB15 (antibody, V domains shown, Hybridoma monoclonal; also called antibody 15; clone 15) VH: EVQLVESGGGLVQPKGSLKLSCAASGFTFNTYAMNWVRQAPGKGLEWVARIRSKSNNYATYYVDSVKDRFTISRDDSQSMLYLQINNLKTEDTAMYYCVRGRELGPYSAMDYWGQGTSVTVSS VL: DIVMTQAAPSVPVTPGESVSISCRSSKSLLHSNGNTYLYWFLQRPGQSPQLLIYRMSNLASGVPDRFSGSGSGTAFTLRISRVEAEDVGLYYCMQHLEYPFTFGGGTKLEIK", "Unit annotation": "%", "% Blocking": -45.6}
{"Binder": "AB10 (antibody, V domains shown, Hybridoma monoclonal; also called antibody 10; clone 10) VH: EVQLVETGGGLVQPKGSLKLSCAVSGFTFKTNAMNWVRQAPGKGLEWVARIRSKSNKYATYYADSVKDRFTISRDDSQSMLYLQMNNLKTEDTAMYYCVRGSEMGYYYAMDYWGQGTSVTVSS VL: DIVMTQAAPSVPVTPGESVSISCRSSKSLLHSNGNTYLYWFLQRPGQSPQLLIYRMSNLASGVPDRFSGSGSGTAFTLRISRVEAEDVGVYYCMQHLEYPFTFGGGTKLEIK", "Unit annotation": "%", "% Blocking": -41.9}
{"Binder": "AB4 (antibody, V domains shown, Hybridoma monoclonal; also called antibody 4; clone 4) VH: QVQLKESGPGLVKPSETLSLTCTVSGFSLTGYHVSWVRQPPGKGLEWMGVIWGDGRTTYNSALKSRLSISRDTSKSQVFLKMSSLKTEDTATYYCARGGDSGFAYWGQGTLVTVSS VL: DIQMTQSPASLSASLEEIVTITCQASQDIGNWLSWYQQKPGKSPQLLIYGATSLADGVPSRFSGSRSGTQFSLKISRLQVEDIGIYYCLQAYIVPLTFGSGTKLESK", "Unit annotation": "%", "% Blocking": -61.4}
